In this section, each of the binders is paired with its reported pKd.
targetDesc: T1, Clostridium difficile toxin A (Clostridioides difficile …, UniProt P16154)
T1 construct: also called TcdA
testName: SPR
testConditions: both partners purified
Quick note: pKd values are minus log10 of concentrations in mol/L.

{"columns": ["binder", "pKd"],
 "data": [
  ["A26.8 VHH T56R, T103K (VHH, source: E. coli TG1, periplasmic extract, purified (IMAC, SEC)) VHH: QVKLEESGGGLVQAGGSLRLSCAASERTFSRYPVAWFRQAPGAEREFVAVISSTGRSTYYADSVKGRFTISRDNAKVTVYLQMNNLKREDTAVYFCAVNSQRKRLQDPNEYDYWGQGTQVTVSS", 8.47]
]}

Note: attention shifts to another entry.
Name the recorded pKd for A26.8 VHH T56R, Q101K, T103R (VHH, also called lead triple mutant; source: E. coli TG1, periplasmic extract, purified (IMAC, SEC)) VHH: QVKLEESGGGLVQAGGSLRLSCAASERTFSRYPVAWFRQAPGAEREFVAVISSTGRSTYYADSVKGRFTISRDNAKVTVYLQMNNLKREDTAVYFCAVNSKRRRLQDPNEYDYWGQGTQVTVSS . 8.70

These measurements were taken from paper PMC5797146.
